Molecular target: BRD4 BD2 (Homo sapiens)
Construct: HEK293 cells were transfected using NanoLuc-BRD4-BD1 or NanoLuc-BRD4-BD2 fusion vectors
Experiment: NanoBRET bromodomain assay, NanoLuc-BRD4-BD2 in HEK293 cells
Type: binding
Conditions: IC50 BD1/IC50 BD2; qualitative if an IC50 is at the upper limit
observable: Fold Selectivity BRD4 BD1/BD2

> print(dat)
                                 smilesdata       experimentalvalue
1  COCc1cccc(-c2cc3c(-c4cc(=O)n(C)cc4-c4ccccc4)cn(C)c(=O)c3[nH]2)c1       xxxx (Fold >1000)
2  Cn1cc(-c2cccc(C(C)(C)O)c2)c(-c2cn(C)c(=O)c3[nH]c(-c4ccc(F)cc4F)cc23)cc1=O       xxxx (Fold >1000)
3  Cc1nn(C2COC2)cc1-c1cc2c(-c3cc(=O)n(C)cc3-c3ccccc3)cn(C)c(=O)c2[nH]1  xx (Fold >50 and ≤200)
4  Cn1ccc(-c2cc3c(-c4cc(=O)n(C)cc4-c4ccccc4)cn(C)c(=O)c3[nH]2)cc1=O  xx (Fold >50 and ≤200)

We now examine a further compound.
Challenge: Which Fold Selectivity BRD4 BD1/BD2 is listed for Cn1cc(-c2ccc(COC(F)(F)F)cc2)c(-c2cn(C)c(=O)c3[nH]c(-c4cnn(C(F)(F)F)c4)cc23)cc1=O ?
Response given: xxxx (Fold >1000)

Data origin: patent US20260217701A1
